Recorded values, source ChEMBL document CHEMBL3997779.

tested on: A2780; experiment: Cytotoxicity against human A2780 cells after 96 hrs by SRB assay; assay type: functional, cell-based; settings: A2780, 96 h
The reader will find reported pEC50 values listed item by item below.
The scale used: pEC50 is minus the common logarithm of the concentration in molar units.

CC(=O)O[C@@H]1C[C@]2(C)[C@H]3CC=C4[C@@H]5CC(C)(C)CC[C@]5(C(=O)N5CCNCC5)CC[C@@]4(C)[C@]3(C)CC[C@H]2C(C)(C)[C@H]1OC(C)=O; 5.72
CC(=O)O[C@H]1CC[C@]2(C)[C@H]3CC[C@@H]4[C@H]5[C@H](C(C)=O)CC[C@]5(C(=O)N5CCNCC5)CC[C@@]4(C)[C@]3(C)CC[C@H]2C1(C)C; 5.51

# evaluate next
For the molecule `CCN(CC)c1ccc2c(-c3ccccc3C(=O)N3CCN(C(=O)[C@]45CCC(C)(C)C[C@H]4C4=CC[C@@H]6[C@@]7(C)C[C@@H](OC(C)=O)[C@H](OC(C)=O)C(C)(C)[C@@H]7CC[C@@]6(C)[C@]4(C)CC5)CC3)c3ccc(=[N+](CC)CC)cc-3oc2c1.[Cl-]` , what pEC50 is on record? 8.15
